Data provenance is the Deep4Chem optical property database.

# testName: solvent given as SMILES
# conditionDetails: in CN(C)C=O
Record Y whenever fluorescence lifetime is at 6 ns or higher; record N when lower.

Examples with answers:
| smiles | label |
| --- | --- |
| COc1cc(N(c2ccc(C=C(C#N)C#N)c(OC)c2)c2ccc(C=C(C#N)C#N)c(OC)c2)ccc1C=C(C#N)C#N | N |
| C(=C\c1ccc(-c2ccc(/C=C/c3ccc(-n4c5ccccc5c5ccccc54)cc3)s2)s1)/c1ccc(-n2c3ccccc3c3ccccc32)cc1 | N |
| CCN(CC)c1ccc2cc(/C(Cl)=C/C=C/C(=C(C#N)C#N)c3ccc(N(c4ccccc4)c4ccccc4)cc3)c(=O)oc2c1 | N |

Textbook exercise: given the entry CCC(=O)c1ccc2cc(N(C)C)ccc2c1 , state whether its fluorescence lifetime is greater than or equal to 6 ns.
N

Textbook exercise: given the entry CCC1(CC)c2cc(B(c3c(C)cc(C)cc3C)c3c(C)cc(C)cc3C)ccc2-c2ccc(N(c3ccccc3)c3ccccc3)cc21 , state whether its fluorescence lifetime is greater than or equal to 6 ns.
N

Textbook exercise: given the entry O=C(O)c1ccccc1Nc1cccc(C(F)(F)F)c1 , state whether its fluorescence lifetime is greater than or equal to 6 ns.
Y

Textbook exercise: given the entry O=C(O)c1ccc2ccc3cccc4ccc1c2c34 , state whether its fluorescence lifetime is greater than or equal to 6 ns.
Y

Textbook exercise: given the entry CN(C)c1ccc(/C=C2\CC/C(=C\c3ccc(N(C)C)cc3)C2=O)cc1 , state whether its fluorescence lifetime is greater than or equal to 6 ns.
N

Textbook exercise: given the entry c1cc2c([nH]c3c4[nH]c5sccc5c4c4nsnc4c23)s1 , state whether its fluorescence lifetime is greater than or equal to 6 ns.
Y
